target: Glycogen synthase kinase-3 alpha (Homo sapiens); assay: concentration-response blocking of human GSK3A – biochemical, luminescence, cell-free homogeneous, retest, dose response (AID 463203); conditions: GSK-3 alpha enzyme, ADP-Glo luminescence, 60 min
Calls of active or inactive are those of the source.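 How the source made its calls: active means more than half of replicate measurements showing over 20% loss of kinase signal relative to plate controls; inconclusive means some but at most half of replicates over 20% loss; inactive means no replicate over 20% signal loss.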
Outcome (select one): active, inactive

Examples with answers:
MOLECULE: O=C(Nc1ccsc1C(=O)O)c1ccccc1
CLASSIFICATION: inactive

MOLECULE: COc1ccc(CC(=O)Oc2cc(C)ccc2C)cc1
CLASSIFICATION: inactive

MOLECULE: CCSc1nc2c(c(=O)[nH]1)C(c1ccccn1)C1=C(CC(C)(C)CC1=O)N2 (stereo unspecified)
CLASSIFICATION: inactive

## Task For `N#CCCN(Cc1ccccc1)S(=O)(=O)c1cccs1` , what call appears in the results of this test?
## Result inactive

## Task Can you handle `COc1ccc2c3c(cccc13)OC2=O` next?
## Result inactive

## Task Can you handle `CC(C)(C)c1ccc(CSc2nnc(-c3ccccc3NC(=O)c3ccccc3)o2)cc1` next?
## Result inactive

## Task Can you handle O=C(CCc1nnc(-c2ccc3c(c2)OCO3)o1)N1CCC(c2ccc(F)cc2)C1 (stereo unspecified) next?
## Result active

## Task Can you handle `O=C(CSc1nnc(SCc2ccccc2)s1)N/N=C/c1ccc(C(=O)O)cc1` next?
## Result active

## Task Can you handle `CS(=O)(=O)Nc1ccc(-c2cc(/C=C3\SC(N)=NC3=O)c[nH]c2=O)cc1` next?
## Result active

## Task Can you handle `Clc1ccccc1C1=Nn2c(nnc2-c2ccncc2)SC1` next?
## Result active

## Task Can you handle `O=C(Nc1ccccc1N1CCOCC1)c1ccc(S(=O)(=O)NCc2ccco2)cc1` next?
## Result inactive
